EXPERIMENTAL_READOUT: melting point

- COMPOUND: "Cc1c(NC(=O)c2ccc(OCC3CCOC3)cc2)ccc2cc(CN[C@H]3CC[C@](C)(O)CC3)cnc12 (stereo partly drawn) [Example 64]"
  melting point: "98 to 101 °C"
- COMPOUND: "Cc1c(NC(=O)c2ccc(OC[C@@H]3CCCO3)cc2F)ccc2cc(CNCC(C)(C)O)cnc12 [Example 67]"
  melting point: "167 to 168 °C"

Consider the record given below.
[ask] For the compound shown here, Cc1c(NC(=O)c2ccc(OC[C@@H]3CCCO3)cc2)ccc2cc(CN[C@H]3CCCC[C@@H]3O)cnc12 [Example 47] , give the reported melting point.
[reply] 157 to 158 °C
